test system: IL-1β production by mouse peritoneal macrophages; test: IL-1β production by mouse peritoneal macrophages (ELISA); type: cell-based; details: dose 0.05 μM; mouse peritoneal macrophages, 48 h, ELISA
Peptide text beside a SMILES is read from it. * marks the point of attachment. X64 = O=C1C=CC(=O)N1c1cccc(CCCCCCCCCC(=O)*)c1; X54 = O=C1C=CC(=O)N1c1cccc(CCCCCCC(=O)*)c1; X75 = O=C1C=CC(=O)N1c1cccc(CC(=O)*)c1
experimental readout: IL-1β (pg/mL)
Write the answer as a number in pg/mL, unit excluded.

Consider the worked cases shown below.
INSERT INTO assay_data (molecule, experimental_readout, unit_text, observed_value) VALUES
  ('C[C@H](NC(=O)CNC(=O)[C@H](CCCNC(=N)N)NC(=O)CCCCCCCCCc1cccc(N2C(=O)C=CC2=O)c1)C(=O)N[C@@H](CC(=O)O)C(=O)N[C@@H](CCCNC(=N)N)C(=O)N[C@@H](C)C(=O)NCC(=O)NCC(=O)NCC(=O)NCC(=O)N[C@@H](CCCNC(=N)N)C(=O)NCC(=O)N[C@@H](CC(=O)O)C(=O)O [X33] (X64-RGADRAGGGGRGD-OH)', 'IL-1β', 'pg/mL', 699.41),
  ('C[C@H](NC(=O)CNC(=O)[C@H](CCCNC(=N)N)NC(=O)CCCCCCc1cccc(N2C(=O)C=CC2=O)c1)C(=O)N[C@@H](CC(=O)O)C(=O)N[C@@H](CCCNC(=N)N)C(=O)N[C@@H](C)C(=O)NCC(=O)NCC(=O)NCC(=O)NCC(=O)N[C@@H](CCCNC(=N)N)C(=O)NCC(=O)N[C@@H](CC(=O)O)C(=O)O [X30] (X54-RGADRAGGGGRGD-OH)', 'IL-1β', 'pg/mL', 674.82);

Please find the next molecule below.
# input Please report the recorded IL-1β for C[C@H](NC(=O)CNC(=O)[C@H](CCCNC(=N)N)NC(=O)Cc1cccc(N2C(=O)C=CC2=O)c1)C(=O)N[C@@H](CC(=O)O)C(=O)N[C@@H](CCCNC(=N)N)C(=O)N[C@@H](C)C(=O)NCC(=O)NCC(=O)NCC(=O)NCC(=O)N[C@@H](CCCNC(=N)N)C(=O)NCC(=O)N[C@@H](CC(=O)O)C(=O)O [X25] (X75-RGADRAGGGGRGD-OH) .
# output 747.54
